- assay-comment: Acute toxicity (LD50) in rats
- conditions: rat, in vivo, iv, 7 days, substantially pure Z-isomeric form
measurement-name: LD50 at 168 h (mg/kg)

[
  {
    "compound": "COC1=Cc2ccccc2/C(=C/C(=O)O)c2ccsc21 [Compound D2]",
    "unit-info": "mg/kg",
    "result-value": 50
  }
]

###

- System: Calvaria halves
- assay-comment: Prevention of bone resorption: calcium release from calvaria
- Assay type: cell-based, Swiss albino mice
- conditions: Mus musculus, in the presence of PGE2

[
  {
    "molecule": "COC1=Cc2ccccc2/C(=C/C(=O)O)c2ccsc21 [Compound D2]",
    "IC50 / µM": 22
  }
]

###

- assay-comment: Acute toxicity (LD50) in mice
- conditions: mouse, in vivo, po, 14 days, substantially pure Z-isomeric form

[
  {
    "compound": "COC1=Cc2ccccc2/C(=C/C(=O)O)c2ccsc21 [Compound D2]",
    "LD50 at 336 h": "1620 mg/kg"
  }
]

###

- Test system: mouse peritoneal macrophages
- assay-comment: Mouse macrophage monokine inhibition (chondrocyte bioassay)
- Format: cell-based
- conditions: 24 h, substantially pure Z-isomeric form, 3-5 separate experiments in triplicate, read-out: ED50 (suppression of monokine release)
pIC50: −log10 of the molar value.
measurement-name: pIC50

[
  {
    "compound": "COC1=Cc2ccccc2/C(=C/C(=O)O)c2ccsc21 [Compound D2]",
    "assayed-target": "mouse peritoneal macrophages",
    "result-value": "~4.00"
  }
]

###

- System: lysosomal enzyme N-acetyl-glucose-aminidase
- assay-comment: Prevention of bone resorption: N-acetyl-glucose-aminidase release from calvaria
- Assay type: cell-based, Swiss albino mice
- conditions: Mus musculus, in the presence of 1,25D3; read-out: IC50 N-acetylglucose-aminidase
pIC50: −log10 of the molar value.

[
  {
    "molecule": "COC1=Cc2ccccc2/C(=C/C(=O)O)c2ccsc21 [Compound D2]",
    "pIC50": 4.43
  }
]

###

- assay-comment: Acute toxicity (LD50) in mice
- conditions: mouse, in vivo, iv, 7 days, substantially pure Z-isomeric form
measurement-name: LD50 at 168 h (mg/kg)

[
  {
    "compound": "COC1=Cc2ccccc2/C(=C/C(=O)O)c2ccsc21 [Compound D2]",
    "measurement-name": "LD50 at 168 h",
    "unit-info": "mg/kg",
    "result-value": 163
  }
]
